# B-score per record follows
Tested on: Muscarinic acetylcholine receptor M1
Assay remarks: M1 muscarinic receptor agonists, primary screen, CHO-M1 cells, Fluo-4 calcium, agonist mode (AID 626)
Assay conditions: Fluo-4 calcium fluorescence, at 10 µM, hits give high values
Out of some 64,000 compounds screened, about 1,900 (3%) were called active. Only a selection was taken, and actives are over-represented in it overall.
Assay metric: B-score

>>> result("COCCn1c(CN(Cc2ccccc2)Cc2ccccc2)nc2c1c(=O)n(C)c(=O)n2C")
"0.66 (inactive)"
>>> result("COCCn1c(-c2ccc(OC)c(OC)c2)nc2ccccc21")
"0.157 (inactive)"
>>> result("CCC(C(=O)NC1CCCC1)N(C(=O)c1snc(C(N)=O)c1N)c1ccc2c(c1)OCCO2 (stereo unspecified)")
"-0.647 (inactive)"
>>> result("N#CC1=C(N)C(C#N)(C#N)[C@H](c2ccsc2)[C@H]2COCC=C12")
"3.35 (active)"
>>> result("COCCn1c(CN2CCC(Cc3ccccc3)CC2)nc2c1c(=O)n(C)c(=O)n2C")
"3.45 (active)"
>>> result("Cc1cc(C)c2nc(N3CCCC3)c(C#N)cc2c1")
"0.391 (inactive)"
>>> result("O=C(CC(Cc1ccccc1)C(=O)O)NCCc1ccc2c(c1)OCO2 (stereo unspecified)")
"-0.0151 (inactive)"
>>> result("COc1ccc2nc(N3CCCC(O)C3)c(C#N)cc2c1 (stereo unspecified)")
"15 (active)"
>>> result("COc1ccc(N2CCN(C(=O)CSc3nc4cc(OC)c(OC)cc4cc3C#N)CC2)cc1")
"-0.487 (inactive)"
>>> result("O=C(c1cn(-c2ccccc2)nc1-c1cccnc1)N1CCCCC1")
"0.178 (inactive)"
>>> result("CNC(=O)c1c(NC(=O)c2ccc(S(=O)(=O)N3CCOCC3)cc2)sc2c1CCC2")
"-0.0829 (inactive)"
>>> result("O=S(=O)(NCC1CCCO1)c1ccc2ccccc2c1 (stereo unspecified)")
"0.554 (inactive)"
>>> result("CCCc1cc(=O)[nH]c(SCC(=O)OCc2ccccc2)n1")
"-0.24 (inactive)"
>>> result("O=C(Nc1ccccc1N1CCN(c2ccccc2)CC1)c1cccc(F)c1")
"-0.048 (inactive)"
>>> result("O=C(OCC(=O)c1cccs1)C1=COCCO1")
"-0.115 (inactive)"
>>> result("O/N=C1\\CC2(Cc3nonc31)OCCO2")
"-0.542 (inactive)"
>>> result("CCOC(=O)c1c(NC(=O)CSc2nnc(CN3CCOCC3)n2C)sc2c1CCCC2")
"0.743 (inactive)"
>>> result("CCCC(=O)Nc1ccccc1N1CCN(C(=O)c2ccccc2)CC1")
"0.545 (inactive)"
>>> result("O=C(Nc1nn(Cc2ccccc2F)cc1Br)c1cccs1")
"-0.416 (inactive)"
>>> result("COCCNC(=O)C(c1ccc(C)o1)N(Cc1cccs1)C(=O)c1snc(C(N)=O)c1N (stereo unspecified)")
"2.74 (active)"
>>> result("O=C(Nc1ccccc1N1CCN(C(=O)c2ccccc2)CC1)c1ccc2c(c1)OCO2")
"2.96 (active)"
>>> result("O=C(c1ccco1)N1CCN(C(=O)C2CC(c3ccc(Cl)c(Cl)c3)=NO2)CC1 (stereo unspecified)")
"-0.464 (inactive)"
>>> result("CN1CCCC(OC(=O)COc2ccc(Br)cc2)C1 (stereo unspecified)")
"2.29 (inactive)"
>>> result("Cc1nc2ccccc2c2oc(C(=O)NCCCN3CCC(C)CC3)cc12")
"0.3 (inactive)"
>>> result("O=C(CSc1nnc(-c2ccco2)n1-c1ccccc1)NCCc1ccccc1")
"0.164 (inactive)"
>>> result("CCC1=C(C(=O)OC)C(c2cc(OC)ccc2OC)C(C#N)=C(N)O1 (stereo unspecified)")
"-0.762 (inactive)"
>>> result("c1ccc(CSc2nnc(-c3ccco3)n2Cc2ccccc2)cc1")
"1.61 (inactive)"
>>> result("CCOc1cccc(/C(O)=C2/C(=O)C(=O)N(CCOC)C2c2ccncc2)c1 (stereo unspecified)")
"-0.0327 (inactive)"
>>> result("COCCNC(=O)C(c1ccc(C)o1)N(Cc1ccccc1)C(=O)Cn1nnc2ccccc21 (stereo unspecified)")
"-0.295 (inactive)"
>>> result("COc1ccccc1OCCOc1ccc(/C=N/n2cnnc2)cc1")
"-1.48 (inactive)"
>>> result("O=C(NCCc1ccc2c(c1)OCCO2)c1cc2ccccc2o1")
"5.92 (active)"
>>> result("Cc1ccc(-c2csc3nnc(SCC(=O)NCc4ccco4)n23)cc1")
"0.495 (inactive)"
>>> result("CC1CCN(Cc2nc3c(c(=O)n(C)c(=O)n3C)n2CCc2ccccc2)CC1")
"0.945 (inactive)"
>>> result("CCC(C)NC(=O)C1CCC(=O)N1Cc1ccc(C)cc1 (stereo unspecified)")
"-0.196 (inactive)"
>>> result("Cc1ccccc1NC(=O)CNc1ccccc1N1CCCCC1")
"1.11 (inactive)"
>>> result("CC(C)OCCCNc1ncnc2c1[nH]c1ccc(F)cc12")
"16.6 (active)"

* * *

System: Muscarinic acetylcholine receptor M1
Assay remarks: M1 muscarinic receptor agonists, primary screen, CHO-M1 cells, Fluo-4 calcium, agonist mode (AID 626)
Assay conditions: Fluo-4 calcium fluorescence, at 10 µM, hits give high values
Screen size: about 64,000 compounds; about 1,900 (3%) were called active. The entries come from a sample that favours actives as a whole.
Assay metric: B-score

>>> number("O=C(Nc1ccccc1N1CCCCC1)c1cccc(F)c1")
0.341
>>> number("CCOc1ccc(NC(=O)N2CCN(CC)CC2)cc1")
-1.38
>>> number("COc1cccc2c(C)c(C(=O)O)[nH]c12")
-2.07
>>> number("COCCOC(=O)C1=C(C)NC(=O)CC1c1cc2c(cc1Br)OCO2 (centres undefined)")
0.114
>>> number("COc1ccc(Nc2oc(-c3ccccc3Cl)nc2C#N)cc1")
37.2
>>> number("CCCOc1ccccc1C1CC(=O)Nc2cc3c(cc21)OCO3 (centres undefined)")
4.33
>>> number("CCOC(=O)c1sc(NC(=O)CSc2nnc(-c3ccco3)o2)c(C(=O)OCC)c1C")
-0.0997
>>> number("CCOc1ccc(N2C(=O)CC(N(O)c3ccccc3)C2=O)cc1 (centres undefined)")
0.335
>>> number("CCOc1ccc(S(=O)(=O)N(CC(=O)O)c2ccccc2)cc1")
0.254
>>> number("COc1ccccc1NC1=NC2(CCCC2)N=C(N)N1")
0.458
>>> number("O=C(Nc1ccon1)c1cccc(Cl)c1")
-0.792
>>> number("Cc1cccc(C)c1NC(=O)N1CC=C(n2c(=O)[nH]c3ccccc32)CC1")
1.14
>>> number("CCOC(=O)c1c(C)[nH]c(C(=O)NCc2ccccc2OC)c1C")
0.0421
>>> number("COc1cc2c(cc1OC)C(c1ccc(C)o1)CC(=O)N2 (centres undefined)")
0.00289

* * *

Recorded B-score for the following compounds
System: Muscarinic acetylcholine receptor M1
Assay remarks: M1 muscarinic receptor agonists, primary screen, CHO-M1 cells, Fluo-4 calcium, agonist mode (AID 626)
Assay conditions: Fluo-4 calcium fluorescence, at 10 µM, hits give high values
In all, about 64,000 compounds went through this assay and about 1,900 (3%) were called active. The full list was thinned out, with actives kept by preference.
Assay metric: B-score

>>> number("O=C(CCSc1ccccc1)NCCSc1ccccn1")
-0.157
>>> number("CCOC(=O)c1cc2n(c1C)-c1ccccc1C2=O")
0.122
>>> number("C=C1c2cc(CC)ccc2NC(=O)N1c1ccc(C)cc1")
-1.17
>>> number("CC1=NC2(CCCc3c2no[n+]3[O-])N(O)C1(C)C (stereo not given)")
-0.303
>>> number("O=C(c1cccs1)N1CCN(Cc2ccc3c(c2)OCO3)CC1")
0.609

* * *

Tested on: Muscarinic acetylcholine receptor M1
Assay remarks: M1 muscarinic receptor agonists, primary screen, CHO-M1 cells, Fluo-4 calcium, agonist mode (AID 626)
Assay conditions: Fluo-4 calcium fluorescence, at 10 µM, hits give high values
Among all 64,000 compounds or so, about 1,900 (3%) were called active. What follows is part of a selection rich in actives, with near analogues and random picks from the rest.
So basically: B-score at -0.07 or higher? That is y. Lower than -0.07? That is n.

>>> class_name("COC(=O)c1ccc(CSc2nc3ccccc3c(=O)n2-c2cccc(OC)c2)o1")
"y"
>>> class_name("COc1ccccc1NC(=O)CSc1nnc(-c2ccoc2C)n1CCc1ccccc1")
"y"
>>> class_name("CCCC(=O)Nc1cccc(-c2cn3ccsc3n2)c1")
"n"
>>> class_name("CCOC(=O)CSc1nc2c(c(=O)n(C)c(=O)n2C)n1Cc1ccccc1F")
"y"
>>> class_name("N#CCCN1CCN(S(=O)(=O)c2ccc(S(=O)(=O)NC3CC3)cc2)CC1")
"y"

* * *

Tested on: Muscarinic acetylcholine receptor M1
Assay remarks: M1 muscarinic receptor agonists, primary screen, CHO-M1 cells, Fluo-4 calcium, agonist mode (AID 626)
Assay conditions: Fluo-4 calcium fluorescence, at 10 µM, hits give high values
Out of some 64,000 compounds screened, about 1,900 (3%) were called active. The list comes from a sample in which actives are over-represented; it also holds close analogues and randomly drawn compounds.
List of B-score values.
Assay metric: B-score

>>> number("O=C(Nc1ccc(-c2nnc(-c3ccccc3)o2)cc1)C1CCCO1 (stereo not given)")
0.124
>>> number("O=C(Nc1ccc2c(c1)OCCO2)c1ccncc1")
-0.637
>>> number("CCOC(=O)C1CCCN(C(=O)c2cncc(Br)c2)C1 (stereo not given)")
-0.115
>>> number("c1cnn(-c2cc(N3CCOCC3)ncn2)c1")
-2.54
>>> number("CSCCC(NC(=O)c1ccc(=O)n(C)n1)c1nc2ccccc2[nH]1 (stereo not given)")
-1.57
>>> number("O=S(=O)(Nc1ccc2nc(-c3ccco3)[nH]c2c1)c1ccccc1")
-0.0329
>>> number("COC(=O)c1ccc(NC(=O)c2ccco2)cc1")
-0.218
>>> number("Fc1ccc2[nH]c3c(N4CCN(Cc5ccc6c(c5)OCO6)CC4)ncnc3c2c1")
6.32
>>> number("CC1=NCCN1S(=O)(=O)c1ccc(Br)c(C)c1")
0.66
>>> number("Cc1ccc(S(=O)(=O)Nc2ccc3ncccc3c2)cc1")
3.16
>>> number("Cc1cc(C)c2cc(CN(Cc3cccs3)Cc3nnnn3CC3CCCO3)c(=O)[nH]c2c1 (stereo not given)")
-0.2
>>> number("O=C(c1ccccc1)c1ccc(OC(=O)N2CCCC2)cc1")
-2.34
>>> number("CC(=O)N1CCN(C(=O)c2cccc(S(=O)(=O)Nc3ccc(C)cc3)c2)CC1")
0.272
>>> number("COc1ccc2[nH]c(=O)c(CN(Cc3nnnn3CCc3ccccc3)CC3CCCO3)cc2c1 (stereo not given)")
0.197
>>> number("Fc1ccc2[nH]c3c(N4CCSCC4)ncnc3c2c1")
12.1
>>> number("O=C(Nc1nnc(CCc2ccccc2)s1)C1CCCO1 (stereo not given)")
-0.799
>>> number("Cc1ccc(C(=O)COc2cccc(NC(=O)c3ccco3)c2)cc1")
1.03
>>> number("O=C(Nc1ccc(F)cc1)c1cccnc1N1CCOCC1")
0.0065
>>> number("O=C(Nc1cc(N2CCOCC2)ncn1)NC1(C(F)(F)F)Oc2ccc(Cl)cc2O1 (stereo not given)")
0.249
>>> number("O=C(Cn1cc(C(=O)c2cccs2)c2ccccc21)NCc1cccs1")
5.61
>>> number("COC(=O)Cn1cc(C(=O)c2cccs2)c2ccccc21")
-0.298
>>> number("CCOC(=O)C1CCCN(C(=O)c2ccc(CS(=O)(=O)c3ccc(Br)cc3)o2)C1 (stereo not given)")
-2.11
>>> number("COC(=O)c1cc(C(=O)CSc2nc(C)cc(C)n2)ccc1O")
-0.00415
>>> number("CCOC(=O)c1ccc(NC(=O)CSc2nnc(COc3ccccc3OC)n2C)cc1")
0.692
>>> number("CC12C(=O)N(n3cnnc3)C(=O)C1C1C=CC2C1 (stereo not given)")
0.0714
>>> number("COC(=O)c1cn(CC(=O)NCc2cccs2)c2ccccc12")
-0.913
>>> number("Cc1cc(Nc2cccc(F)c2)n2ncnc2n1")
1.22
>>> number("Cc1nc2sc(C(c3ccco3)N3CCC4(CC3)OCCO4)c(O)n2n1 (stereo not given)")
-0.0511
>>> number("CCOc1ccc2[nH]c(=O)c(CN(Cc3nnnn3Cc3ccccc3)CC3CCCO3)cc2c1 (stereo not given)")
3.01
>>> number("O=C(Nc1cccc(C(=O)N2CCCC2)c1)c1ccccc1")
0.113

Values compiled from PubChem BioAssay AID626.
